Values compiled from paper PMC10891983.

Field: CC50 at 72 h. Provide a value for each of the compounds that follow.
# procedure details: Assay for evaluating mammalian cytotoxicity (MTT)
# Format: cell-based
# test conditions: human, human foreskin fibroblast (HFF) cells, ± SD of three independent experiments, read-out: CC50 (Half Cytotoxic Concentration)
A number alone suffices; assume µM.

Sure, the documented CC50 at 72 h for "COc1ccc2c(c1)nc(-c1ccc(Br)cn1)c1[nH]ccc12" is 28.6

// sample "CC(C)(C)OC(=O)Nc1ccc(-c2nc3ccc(Cl)cc3c3cc[nH]c23)cc1" , its CC50 at 72 h was 5.36

// "COc1ccc2c(c1)nc(-c1c[nH]c3ccccc13)c1[nH]ccc12" : CC50 at 72 h value = 30.5

Entry "COc1ccc2c(c1)nc(-c1ccc(N3CCC(F)CC3)cc1)c1[nH]ccc12" , CC50 at 72 h reported as 5.05

Record summary for "COc1ccc2c(c1)nc(-c1ccc(N3CCNCC3)cc1)c1[nH]ccc12" : reported CC50 at 72 h = 29.1

Just so you know, measured CC50 at 72 h for CCc1nc(N)nc(N)c1-c1ccc(Cl)cc1 [PYR, pyrimethamine, reference compound] came out at 68.1

// recorded CC50 at 72 h for "CC(C)(C)OC(=O)Nc1ccc(-c2nc3ccc(OC(F)(F)F)cc3c3cc[nH]c23)cc1" : 4.16
